# System: CDK4-cyclinD1
# settings: concentration: 1 μM, replicates: in singlicate; n = 1
Attribute: %Inh
The figure you give is taken to be in %; do not add the unit.

Examples with answers:
{"columns": ["compound", "testResult"],
 "data": [
  ["Cl.NS(=O)(=O)c1cccc(Nc2cc(-c3ccc(F)cc3)n[nH]2)c1 [GW824645]", 0],
  ["Cc1ccccc1COc1cc(-n2cnc3cc(Cl)ccc32)sc1C(N)=O [GW813349]", 25]
]}

Exam item: Field request: %Inh | item: Fc1cccc(CSc2nnc(-c3ccc4c(c3)CCO4)o2)c1
Marked response: 0

====

# Tested on: PHKG2
# settings: concentration: 1 μM, replicates: in singlicate; n = 1
Tag: y if measured %Inh is not below 1%, n if it is.

The examples below pair each entry with its known result.
{"columns": ["compound", "class"],
 "data": [
  ["COc1cc(Nc2ccnc3ccc(C(F)(F)F)cc23)cc(OC)c1OC", "n"],
  ["COC(=O)c1c(-c2ccccc2)c2cc(Br)ccc2c(=O)n1Cc1ccc(S(C)(=O)=O)cc1", "y"],
  ["COC(=O)c1c(-c2ccccc2)c2cc(C)ccc2c(=O)n1Cc1ccccc1", "y"],
  ["CCc1nc(-c2cccc(C)c2)c(-c2ccncc2)s1", "y"],
  ["Cl.NS(=O)(=O)c1cccc(Nc2cc(-c3ccc(F)cc3)n[nH]2)c1", "n"]
]}

Exam item: Is the recorded value of %Inh equal to or greater than 1% for this compound? Cc1nn2c(=O)cc(N3CCOCC3)nc2n1Cc1cccc(Cl)c1Cl
Marked response: n

Exam item: Is the recorded value of %Inh equal to or greater than 1% for this compound? Nc1nccc2scc(-c3ccc4c(c3)CCN4C(=O)Cc3ccccc3)c12
Marked response: y

Exam item: Is the recorded value of %Inh equal to or greater than 1% for this compound? COc1ccc(Nc2nccc(N3CCC(NS(=O)(=O)c4ccc(NC(C)=O)cc4)C3)n2)cc1 (stereo not drawn)
Marked response: n

====

Attribute: %Inh
# System: PLK2
# settings: concentration: 1 μM, replicates: in singlicate; n = 1

{"columns": ["molecule", "targetEntity", "parameterMeasured", "testResult"],
 "data": [
  ["Cc1cccc(-c2cc(-c3c[nH]nc3-c3ccccn3)ccn2)c1 [GW679395]", "PLK2", "%Inh", "0%"],
  ["COc1ccc(CNC(=O)NC2CCN(c3ccnc(Nc4ccc(F)cc4)n3)C2)cc1 (centres unmarked) [GSK1379706]", "PLK2", "%Inh", "0%"],
  ["CN(C)c1cc(-c2ccc3c(N)n[nH]c3c2)nc(N)n1 [GSK2219329]", "PLK2", "%Inh", "0%"],
  ["Cc1nc(N(C)[C@H]2CN(C(=O)CC#N)CC[C@H]2C)c2cc[nH]c2n1", "PLK2", "%Inh", "5%"]
]}

Now for another entry.
Exam item: Field request: %Inh | item: COc1cccc(-n2cnc3c(N)ncnc32)c1 [SKF-97416]
Marked response: 43%

====

# Test system: AMPK-alpha2
# Construct: gene PRKAA2
# settings: concentration: 1 μM, replicates: in singlicate; n = 1
parameterMeasured: %Inh (%)
The figure you give is taken to be in %; do not add the unit.

Examples with answers:
{"columns": ["smilesString", "%Inh (%)"],
 "data": [
  ["CCn1c(-c2nonc2N)nc2ccccc21", 0],
  ["COc1cc(OC)cc(-c2cc3cnc(N)nc3nc2NC(=O)NC(C)(C)C)c1", 15]
]}

Now for another entry.
Exam item: Field request: %Inh | item: CCS(=O)(=O)c1ccc(OC)c(Nc2ncc(-c3ccc(F)cc3)o2)c1.Cl
Marked response: 17

====

# Test system: HIPK3
# settings: concentration: 1 μM, replicates: in singlicate; n = 1
Attribute: %Inh
The figure you give is taken to be in %; do not add the unit.

{"columns": ["smilesString", "u", "testResult"],
 "data": [
  ["Cc1cccc(-c2cc(-c3c[nH]nc3-c3ccccn3)ccn2)c1", "%", 13],
  ["COc1cc(OC)cc(-c2cc3cnc(N)nc3nc2NC(=O)NC(C)(C)C)c1", "%", 0],
  ["Cc1c(Cn2c(C)nn3c(=O)cc(N4CCO[C@H](C)C4)nc23)cccc1C(F)(F)F", "%", 30]
]}

Now for another entry.
Exam item: Field request: %Inh | item: O=C(Nc1n[nH]c2nc(-c3ccccc3)c(Cl)cc12)C1CC1
Marked response: 33

====

# System: TGFBR2
# settings: concentration: 1 μM, replicates: in singlicate; n = 1
One threshold, 6%, splits the recorded %Inh values: lower ones are fulfilled, equal or higher ones are not fulfilled.

The examples below pair each entry with its known result.
{"columns": ["molecule", "class"],
 "data": [
  ["CCC(=O)c1c(-c2ccccc2)c2cc(Cl)ccc2c(=O)n1Cc1cc(S(C)(=O)=O)n(CCC(C)(C)O)n1", "not fulfilled"],
  ["Cc1ccc(Oc2ccc(Nc3ncnc4cc[nH]c34)cc2C)cn1", "fulfilled"],
  ["COc1cc2nccc(Nc3ccc(OCc4ccc(NC(C)=O)cc4)cc3)c2cc1OC.Cl [GW440135]", "fulfilled"],
  ["Cc1ccccc1COc1cc(-n2cnc3cc(Cl)ccc32)sc1C(N)=O [GW813349]", "fulfilled"],
  ["Nc1n[nH]c2ncc(-c3ccccc3)cc12 [SB-517081]", "fulfilled"],
  ["CCCC(=O)Nc1n[nH]c2ncc(-c3cccc4ccccc34)cc12 [SB-642057]", "not fulfilled"]
]}

Exam item: hey, is %Inh for O=C(Nc1ccc2c(c1)OCO2)NC1CCN(c2ccnc(NCc3ccc(F)cc3)n2)CC1 [GSK1379859] lower than 6% or not?
Marked response: fulfilled

Exam item: hey, is %Inh for CCn1c(-c2nonc2N)nc2ccccc21 [SB-693162/GW549034] lower than 6% or not?
Marked response: fulfilled

====

Hi! I'm sharing some Kd results obtained with ZAK.

{"columns": ["smilesString", "parameterMeasured", "testResult"],
 "data": [
  ["O=C(NCCNc1ccnc(Nc2ccc(F)cc2)n1)Nc1ccc2c(c1)OCO2", "Kd", "> 10 µM"]
]}

Exam item: Record lookup: for ZAK, what Kd belongs to CN(C)c1cc(-c2ccc3c(N)n[nH]c3c2)nc(N)n1 ?
Marked response: > 10 µM

====

# System: ERK4
# Construct: gene MAPK4
# settings: concentration: 1 μM, replicates: in singlicate; n = 1
Attribute: %Inh
The figure you give is taken to be in %; do not add the unit.

Examples with answers:
{"columns": ["smilesString", "%Inh [%]"],
 "data": [
  ["CCC(=O)c1c(-c2ccccc2)c2cc(Cl)ccc2c(=O)n1Cc1cc(C(=O)NC2CC2)n(C)n1", 5],
  ["CCc1ccc(-c2ccc3c(c2)-c2nn(C)cc2S(=O)(=O)N3C)cc1", 0],
  ["Cc1cccc(-c2cc(-c3c[nH]nc3-c3ccccn3)ccn2)c1", 19],
  ["COc1cccc(C2=C(N(C)c3ccccc3)C(=O)NC2=O)c1", 46],
  ["CCC(=O)c1c(-c2ccccc2)c2cc(Cl)ccc2c(=O)n1Cc1cc(S(C)(=O)=O)n(CC(F)F)n1", 0],
  ["Cc1nc(N(C)[C@H]2CN(C(=O)CC#N)CC[C@H]2C)c2cc[nH]c2n1", 19],
  ["COc1cc2ncn(-c3cc(OCc4ccc(S(C)(=O)=O)cc4)c(C(N)=O)s3)c2cc1OC", 0],
  ["COc1cc2nccc(Nc3cccc(Oc4ccccc4)c3)c2cc1OC.Cl", 10],
  ["COc1ccc(-n2cnc3c(N)ncnc32)cc1", 0],
  ["Cl.NS(=O)(=O)c1cccc(Nc2cc(-c3ccc(F)cc3)n[nH]2)c1", 0]
]}

Exam item: Field request: %Inh | item: Nc1nccc2scc(-c3ccc4c(c3)CCN4C(=O)Cc3ccccc3)c12
Marked response: 33

Exam item: Field request: %Inh | item: Cc1nn2c(=O)cc(N3CCOCC3)nc2n1Cc1cccc(Cl)c1Cl
Marked response: 5

Exam item: Field request: %Inh | item: Fc1cccc(CSc2nnc(-c3ccc4c(c3)CCO4)o2)c1
Marked response: 0

Exam item: Field request: %Inh | item: COc1cc(Nc2ccnc3ccc(C(F)(F)F)cc23)cc(OC)c1OC
Marked response: 1

Exam item: Field request: %Inh | item: CCC(=O)c1c(-c2ccccc2)c2cc(Cl)ccc2c(=O)n1Cc1cc(S(C)(=O)=O)n(CCC(C)(C)O)n1
Marked response: 14

Exam item: Field request: %Inh | item: CCn1c(-c2ccoc2)nc2cnccc21
Marked response: 11

Exam item: Field request: %Inh | item: Cc1ccc(Oc2ccc(Nc3ncnc4cc[nH]c34)cc2C)cn1
Marked response: 7
